System: U2OS
Test: Multiplex assay against U2OS
Format: toxicity, cell-based
Conditions: human, 24 h, 10 µM, compound concentration 10 uM
Endpoint Label: Population Membrane Permeable-Phenotype (%)

[
  {
    "Mol Smiles": "O=C1NC(NC23CC4CC(CC(C4)C2)C3)=N/C1=C\\c1ccc2ncsc2c1",
    "Reported": 0
  },
  {
    "Mol Smiles": "COC(c1ccccc1)(c1ccccc1)[C@H](Oc1nc(C)cc(C)n1)C(=O)O",
    "Reported": 7
  },
  {
    "Mol Smiles": "COc1ccc2c(c1OCc1ccccc1)C[C@@H](C(=O)O)N(C(=O)C(c1ccccc1)c1ccccc1)C2",
    "Reported": 4
  },
  {
    "Mol Smiles": "C[C@H](NC(=O)c1c(C(F)F)nn(C)c1Oc1cccc(C(F)(F)F)c1)c1ccc(C(=O)O)cc1",
    "Reported": 5
  }
]

* * *

Tested on: HEK-293T
Test: Multiplex assay against HEK293T
Format: toxicity, cell-based
Details: human, 48 h, 1 µM, compound concentration 1 uM
Endpoint Label: Population Membrane Permeable-Phenotype (%)

[
  {
    "Compound": "Oc1c(CN2CCN(c3ccccn3)CC2)cc(Cl)c2cccnc12",
    "Reported": "0%"
  },
  {
    "Compound": "Nc1nc(CC(=O)Nc2ccc(CCNC[C@H](O)c3ccccc3)cc2)cs1",
    "Reported": "1%"
  },
  {
    "Compound": "COc1ccc2c(c1OCc1ccccc1)C[C@@H](C(=O)O)N(C(=O)C(c1ccccc1)c1ccccc1)C2",
    "Reported": "0%"
  },
  {
    "Compound": "CCc1cc2cc(NS(=O)(=O)c3ccc(C#N)cc3)ccc2n(CC)c1=O",
    "Reported": "1%"
  },
  {
    "Compound": "O=C(O)CCC/C=C\\CC1C(O)CC(O)C1/C=C/C(O)COc1cccc(Cl)c1 (centres undefined)",
    "Reported": "1%"
  },
  {
    "Compound": "Cc1ccc(OCC(O)C(C)NC(C)C)c2c1CCC2.Cl (centres undefined)",
    "Reported": "0%"
  },
  {
    "Compound": "C=CCN1C[C@H](C(=O)N(CCCN(C)C)C(=O)NCC)C[C@@H]2c3cccc4[nH]cc(c34)C[C@H]21",
    "Reported": "1%"
  },
  {
    "Compound": "COc1cc(OC2CCN(C(C)=O)CC2)ccc1C(=O)N1CCC(N2C(=O)OCc3ccccc32)CC1",
    "Reported": "1%"
  },
  {
    "Compound": "Nc1nc(-c2ccco2)c2cnn(Cc3ccccc3F)c2n1",
    "Reported": "1%"
  }
]

* * *

System: HEK-293T
Assay: Multiplex assay against HEK293T
Type: toxicity, cell-based
Settings: human, 12 h, 10 µM, compound concentration 10 uM
Endpoint Label: Population Normal (%)

[
  {
    "Molecule": "CC(N)C1CCC(C(=O)Nc2ccncc2)CC1 (centres undefined)",
    "Study Target": "HEK-293T",
    "Endpoint Label": "Population Normal (%)",
    "Reported": 100
  },
  {
    "Molecule": "Cc1c(C(=O)NCCCN(C)C)sc2ncnc(Nc3ccc(F)cc3OC(C)CF)c12 (centres undefined)",
    "Study Target": "HEK-293T",
    "Endpoint Label": "Population Normal (%)",
    "Reported": 100
  },
  {
    "Molecule": "NC1=NC(=O)/C(=C2\\CCNC(=O)c3[nH]c4ccccc4c32)N1",
    "Study Target": "HEK-293T",
    "Endpoint Label": "Population Normal (%)",
    "Reported": 100
  },
  {
    "Molecule": "Cc1cc(NC(=O)NCCN2CCC(O)(Cc3ccccc3)CC2)c2ccccc2n1",
    "Study Target": "HEK-293T",
    "Endpoint Label": "Population Normal (%)",
    "Reported": 91
  },
  {
    "Molecule": "O=C(Nc1c[nH]nc1-c1nc2cc(CN3CCOCC3)ccc2[nH]1)NC1CC1",
    "Study Target": "HEK-293T",
    "Endpoint Label": "Population Normal (%)",
    "Reported": 100
  },
  {
    "Molecule": "CN1CC[C@@]23CCCC[C@@H]2[C@@H]1Cc1ccc(O)cc13.O=C(O)C(O)C(O)C(=O)O",
    "Study Target": "HEK-293T",
    "Endpoint Label": "Population Normal (%)",
    "Reported": 100
  },
  {
    "Molecule": "CCn1c(-c2ccncc2)cc2c1CCNC2=O",
    "Study Target": "HEK-293T",
    "Endpoint Label": "Population Normal (%)",
    "Reported": 100
  },
  {
    "Molecule": "CC(C)C[C@H](CO)Nc1nc(S[C@@H](C)c2ccccc2)nc2nc(N)sc12",
    "Study Target": "HEK-293T",
    "Endpoint Label": "Population Normal (%)",
    "Reported": 89
  },
  {
    "Molecule": "COc1cc(N2CCN(C)CC2)ccc1Nc1nccc(-c2cn(C)c3cnccc23)n1",
    "Study Target": "HEK-293T",
    "Endpoint Label": "Population Normal (%)",
    "Reported": 100
  }
]

* * *

Test system: U2OS
Test: Multiplex assay against U2OS
Assay type: toxicity, cell-based
Conditions: human, 48 h, 1 µM, compound concentration 1 uM
Examples of molecules with documented Population Tubulin-Different-Phenotype (%) follow.
Endpoint Label: Population Tubulin-Different-Phenotype (%)

[
  {
    "Mol Smiles": "COc1ccc2c(c1OCc1ccccc1)C[C@@H](C(=O)O)N(C(=O)C(c1ccccc1)c1ccccc1)C2",
    "Unit Of Measurement": "%",
    "Reported": 2
  },
  {
    "Mol Smiles": "CC(C)C[C@H](CO)Nc1nc(S[C@@H](C)c2ccccc2)nc2nc(N)sc12",
    "Unit Of Measurement": "%",
    "Reported": 2
  },
  {
    "Mol Smiles": "COC(c1ccccc1)(c1ccccc1)[C@H](Oc1nc(C)cc(C)n1)C(=O)O",
    "Unit Of Measurement": "%",
    "Reported": 0
  },
  {
    "Mol Smiles": "CCCCC1=NC2(CCCC2)C(=O)N1Cc1ccc(-c2ccccc2-c2nnn[nH]2)cc1",
    "Unit Of Measurement": "%",
    "Reported": 2
  },
  {
    "Mol Smiles": "C=CCN1C[C@H](C(=O)N(CCCN(C)C)C(=O)NCC)C[C@@H]2c3cccc4[nH]cc(c34)C[C@H]21",
    "Unit Of Measurement": "%",
    "Reported": 3
  }
]

* * *

Tested on: HEK-293T
Test: Multiplex assay against HEK293T
Assay type: toxicity, cell-based
Details: human, 12 h, 10 µM, compound concentration 10 uM

[
  {
    "Compound": "CC(C)(C)c1cc(NC(=O)Nc2ccc(-c3cn4c(n3)sc3cc(OCCN5CCOCC5)ccc34)cc2)no1",
    "Population Pyknosed Nuclei (%)": 21
  },
  {
    "Compound": "O=C(O)CCC/C=C\\CC1C(O)CC(O)C1/C=C/C(O)COc1cccc(Cl)c1 (stereo not given)",
    "Population Pyknosed Nuclei (%)": 14
  },
  {
    "Compound": "COc1ccc2c(c1OCc1ccccc1)C[C@@H](C(=O)O)N(C(=O)C(c1ccccc1)c1ccccc1)C2",
    "Population Pyknosed Nuclei (%)": 12
  },
  {
    "Compound": "C=CCN1C[C@H](C(=O)N(CCCN(C)C)C(=O)NCC)C[C@@H]2c3cccc4[nH]cc(c34)C[C@H]21",
    "Population Pyknosed Nuclei (%)": 14
  },
  {
    "Compound": "CC(C)C[C@H](CO)Nc1nc(S[C@@H](C)c2ccccc2)nc2nc(N)sc12",
    "Population Pyknosed Nuclei (%)": 18
  }
]

* * *

Test system: HEK-293T
Experiment: Multiplex assay against HEK293T
Format: toxicity, cell-based
Conditions: human, 48 h, 1 µM, compound concentration 1 uM
Endpoint Label: Population Tubulin-Different-Phenotype (%)

[
  {
    "Compound": "Cc1ccc(OCC(O)C(C)NC(C)C)c2c1CCC2.Cl (centres undefined)",
    "Reported": "14%"
  },
  {
    "Compound": "COc1cc(NC(=O)CCN2CCC(OC(=O)Nc3ccccc3-c3ccccc3)CC2)c(Cl)cc1CNC[C@H](O)c1ccc(O)c2[nH]c(=O)ccc12",
    "Reported": "17%"
  },
  {
    "Compound": "Nc1nc(CC(=O)Nc2ccc(CCNC[C@H](O)c3ccccc3)cc2)cs1",
    "Reported": "10%"
  },
  {
    "Compound": "Cc1nc2ccc(Oc3ccc(F)cc3)cc2c(=O)n1C[C@H]1CCCN(C(C)C)C1.Cl",
    "Reported": "14%"
  }
]

Where do these numbers come from? They come from ChEMBL document CHEMBL5724801.
